All figures here come from PubChem BioAssay AID623964.

Target Entity: Hepatitis C virus NS3-NS4A protease (single-chain scNS3-4A)
Method Summary: HCV scNS3-4A protease cleavage blockers – biochemical, FRET peptide fluorescence, powder samples, selectivity assay for HCV NS3 helicase inhibitor project, late-stage follow-up (AID 623964)
Active and inactive are the calls of the source.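 Rule for the calls: active = compounds slowing the HCV NS3-NS4A protease by half at 50 µM or lower, per IC50; inactive = the rest.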
Could you please pick one outcome from this set? active, inactive

(Q) Tell me the assay call for "Cc1ccc2nc(-c3ccc4nc(-c5ccc(NC(=O)Nc6ccccc6)cc5)sc4c3)sc2c1S(=O)(=O)O" please.
(A) inactive

(Q) Tell me the assay call for "Cc1ccc2nc(-c3ccc4nc(-c5ccc(NC(=O)c6cc(C(F)(F)F)ccc6F)cc5)sc4c3)sc2c1S(=O)(=O)O" please.
(A) inactive

(Q) Tell me the assay call for "Cc1ccc2nc(-c3ccc4nc(-c5ccc(NC(=O)c6cc(C(F)(F)F)cc(C(F)(F)F)c6)cc5)sc4c3)sc2c1S(=O)(=O)O" please.
(A) active

---

Target Entity: Hepatitis C virus NS3-NS4A protease (single-chain scNS3-4A)
Method Summary: HCV scNS3-4A protease cleavage blockers – biochemical, FRET peptide fluorescence, powder samples, selectivity assay for HCV NS3 helicase inhibitor project, late-stage follow-up (AID 623964)
Activity calls are given as the source filed them.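 Rule for the calls: active = compounds slowing the HCV NS3-NS4A protease by half at 50 µM or lower, per IC50; inactive = the rest.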
Could you please pick one outcome from this set? 1 for active, 0 for inactive

(Q) Tell me the assay call for "Cc1ccc2nc(-c3ccc4nc(-c5ccc(NC(=O)c6cccc(Cl)c6)cc5)sc4c3)sc2c1S(=O)(=O)O" please.
(A) 0

(Q) Tell me the assay call for "Cc1ccc2nc(-c3ccc4nc(-c5ccc(NC(=O)c6ccc(F)cc6)cc5)sc4c3)sc2c1S(=O)(=O)O" please.
(A) 0

(Q) Tell me the assay call for "CCOc1ccc2c(NNC(=O)c3cnccn3)c3c(nc2c1)CCCC3" please.
(A) 0

(Q) Tell me the assay call for "COc1ccc(NC(=O)Nc2ccc(-c3nc4ccc(-c5nc6ccc(C)c(S(=O)(=O)O)c6s5)cc4s3)cc2)cc1" please.
(A) 0

(Q) Tell me the assay call for "Cc1ccc2nc(-c3ccc4nc(-c5ccc(NC(=O)Nc6ccc(Cl)cc6)cc5)sc4c3)sc2c1S(=O)(=O)O" please.
(A) 1

(Q) Tell me the assay call for "O=C(CCCCCCC(=O)Nc1ccc(-c2nc3ccccc3[nH]2)cc1)Nc1ccc(-c2nc3ccccc3[nH]2)cc1" please.
(A) 1

(Q) Tell me the assay call for "Cc1ccc2nc(-c3ccc4nc(-c5ccc(NC(=O)c6ccc7ccccc7c6)cc5)sc4c3)sc2c1S(=O)(=O)O" please.
(A) 0

(Q) Tell me the assay call for "Cc1ccc2nc(-c3ccc4nc(-c5ccc6nc(-c7ccc8nc(-c9ccc(N)cc9)sc8c7)sc6c5)sc4c3)sc2c1S(=O)(=O)O" please.
(A) 1

---

Target Entity: Hepatitis C virus NS3-NS4A protease (single-chain scNS3-4A)
Method Summary: HCV scNS3-4A protease cleavage blockers – biochemical, FRET peptide fluorescence, powder samples, selectivity assay for HCV NS3 helicase inhibitor project, late-stage follow-up (AID 623964)
Activity calls are given as the source filed them.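 The calls were made as follows: active = compounds slowing the HCV NS3-NS4A protease by half at 50 µM or lower, per IC50; inactive = the rest.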
Could you please pick one outcome from this set? active, inactive

(Q) Tell me the assay call for "Cc1ccc2nc(-c3ccc4nc(-c5ccc(NC(=O)c6ccc(C(F)(F)F)cc6)cc5)sc4c3)sc2c1S(=O)(=O)O" please.
(A) active

(Q) Tell me the assay call for "Cc1ccc2nc(-c3ccc4nc(-c5ccc(NC(=O)c6ccc7nc(-c8ccc(N)cc8)sc7c6)cc5)sc4c3)sc2c1S(=O)(=O)O" please.
(A) active

(Q) Tell me the assay call for "Cc1ccc2nc(-c3ccc(NC(=O)c4ccc(NC(=O)Nc5ccccc5)cc4)cc3)sc2c1S(=O)(=O)O" please.
(A) inactive

(Q) Tell me the assay call for "Cc1ccc2nc(-c3ccc4nc(-c5ccc(NC(=O)c6ccc(Cl)c(Cl)c6)cc5)sc4c3)sc2c1S(=O)(=O)O" please.
(A) active
